Recorded values, source patent US20250186594A1.

Entries and their measured koff follow.
subject-of-test: T1, Fc fused human IL-18Rα (human, UniProt Q13478 19-329, limits assumed)
T1 construct: also called IL-18Rα monomer; human IL-18 receptor alpha (CD218a); not shown: Fc
T1 sequence (looked up): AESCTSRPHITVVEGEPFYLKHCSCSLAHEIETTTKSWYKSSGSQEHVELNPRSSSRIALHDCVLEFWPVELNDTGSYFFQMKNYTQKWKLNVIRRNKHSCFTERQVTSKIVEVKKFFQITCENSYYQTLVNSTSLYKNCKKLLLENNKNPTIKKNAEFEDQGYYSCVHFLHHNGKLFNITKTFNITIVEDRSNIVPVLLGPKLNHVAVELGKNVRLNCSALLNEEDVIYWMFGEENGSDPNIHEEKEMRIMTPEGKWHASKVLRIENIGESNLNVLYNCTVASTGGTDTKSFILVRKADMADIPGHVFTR
method-summary: SPR, Fc-IL-18Rα captured, 1:1 fit
property-label: koff (s⁻¹)

>  <binder>
IL-18 variant SEQ ID NO: 30 with 30 kDa PEG (E6K, V11I, C38A, K53A, T63A, C76A, C127A, C68-30kPEG) (ligand, 30 kDa PEG on Cys 68 (C68-30kPEG), also called 30 + PEG30; 30 + PEG) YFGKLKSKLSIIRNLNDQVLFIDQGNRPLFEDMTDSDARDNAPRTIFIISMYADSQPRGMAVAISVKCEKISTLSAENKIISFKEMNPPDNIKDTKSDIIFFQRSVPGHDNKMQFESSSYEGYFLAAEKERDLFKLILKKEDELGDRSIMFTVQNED

>  <property-label>
koff

>  <unit-tag>
s⁻¹

>  <measured>
0.0842

$$$$
>  <binder>
IL-18 variant SEQ ID NO: 30 with 10 kDa PEG (E6K, V11I, C38A, K53A, T63A, C76A, C127A, C68-10kPEG) (ligand, 10 kDa PEG on Cys 68 (C68-10kPEG), also called 30 + PEG10) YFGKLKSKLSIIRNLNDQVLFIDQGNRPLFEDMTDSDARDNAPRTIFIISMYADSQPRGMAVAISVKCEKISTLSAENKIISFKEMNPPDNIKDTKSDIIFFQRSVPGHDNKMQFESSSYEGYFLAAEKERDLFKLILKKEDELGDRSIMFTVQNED

>  <property-label>
koff

>  <unit-tag>
s⁻¹

>  <measured>
0.0779

$$$$
>  <binder>
IL-18 variant SEQ ID NO: 63 (E6K, C38A, K53A, C76A, C127A) (ligand) YFGKLKSKLSVIRNLNDQVLFIDQGNRPLFEDMTDSDARDNAPRTIFIISMYADSQPRGMAVTISVKCEKISTLSAENKIISFKEMNPPDNIKDTKSDIIFFQRSVPGHDNKMQFESSSYEGYFLAAEKERDLFKLILKKEDELGDRSIMFTVQNED

>  <property-label>
koff

>  <unit-tag>
s⁻¹

>  <measured>
0.976

$$$$
